Sourced from PubChem BioAssay (NCATS)

Experiment Summary: Primary qHTS to identify inhibitors of SARS-CoV-2 cell entry (AID 1645846); also: nearly all actives have a fitted effect of over 45% in size
Experimental Setup: SARS-CoV-2 pseudovirus cell entry assay, luminescence; at 57.1 µM (top of the series) unless noted
From the text: Assay Provider: Wei Zheng, Ph.D. National Center for Advancing Translational Sciences, National Institute of Health, Rockville, MD. SARS-CoV-2 spike protein, within the viral envelope, mediates viral attachment and infection of host cells. The SARS-CoV-2 spike protein specifically binds to the host receptor ACE2 (Angiotensin-converting enzyme 2). […] 11. […] Read luminescence signal (Viewlux plate reader, PerkinElmer). […]
Results filed as inconclusive are left out.
Grouping by measured activity change, negative = inhibition is done with the following cut points: zone 1 (below -20%), zone 2 (-20% to below -10%), zone 3 (-10% or more)

[[record]]
compound = "N[C@@H]1CCCCN(c2c(F)cc3c(=O)c(C(=O)O)cn(C4CC4)c3c2Cl)C1"
class = "zone 3"

[[record]]
compound = "COc1ccc(-c2noc(CC(=O)O)c2-c2ccc(OC)cc2)cc1"
class = "zone 1"

[[record]]
compound = "Cc1ccc(-c2nc(N)nc3c2nnn3Cc2cccc(CO[C@H]3CCOC3)n2)o1"
class = "zone 2"

[[record]]
compound = "COc1ccc(/C=C\\c2cc(OC)c(OC)c(OC)c2)cc1O"
class = "zone 1"

[[record]]
compound = "COc1ccc(-c2oc3c(CC=C(C)C)c(OC4O[C@H](CO)[C@@H](O)[C@H](O)[C@H]4O)cc(O)c3c(=O)c2OC2O[C@@H](C)[C@H](O)[C@@H](O)[C@H]2O)cc1 (some centres not stated)"
class = "zone 2"

[[record]]
compound = "C[C@@H]1O[C@@H](O[C@@H]2\\C=C/C=C\\C=C/C=C\\C[C@H](C)OC(=O)/C=C\\[C@H]3O[C@@H]3C[C@H](O)C[C@]3(O)C[C@@H](O)[C@@H](C(=O)O)[C@H](C2)O3)[C@H](O)[C@H](N)[C@@H]1O"
class = "zone 2"

[[record]]
compound = "Cn1c(-c2ccccc2C(F)(F)F)nnc1C12CCC(c3noc(C4CC(F)(F)C4)n3)(CC1)CC2"
class = "zone 2"

[[record]]
compound = "O=C(O)C1=CCCN(CCOC(c2ccc(C(F)(F)F)cc2)c2ccc(C(F)(F)F)cc2)C1"
class = "zone 3"

[[record]]
compound = "O=C(O)C(O)C(O)C(=O)O (configuration not stated)"
class = "zone 2"

[[record]]
compound = "O=C(NNCS(=O)(=O)O)c1ccncc1"
class = "zone 1"

[[record]]
compound = "Cc1c(-c2ccc(-c3ccccc3F)cc2)nc2ccc(F)cc2c1C(=O)O"
class = "zone 1"

[[record]]
compound = "O=C(OCCO)c1ccccc1O"
class = "zone 2"

[[record]]
compound = "O=C(O)C1CCc2cc(C3CCCCC3)c(Cl)cc21 (configuration not stated)"
class = "zone 1"

[[record]]
compound = "CC(C)n1c(=O)cc(N[C@@H](C)c2ccccc2)[nH]c1=O"
class = "zone 1"

[[record]]
compound = "C[C@@H]1C[C@H]2[C@@H]3C[C@H](F)C4=CC(=O)C=C[C@]4(C)[C@@]3(Cl)[C@@H](O)C[C@]2(C)[C@H]1C(=O)COC(=O)C(C)(C)C"
class = "zone 3"

[[record]]
compound = "C[C@H]1[C@H](C)CC[C@]2(C(=O)O)CC[C@]3(C)C(=CC[C@@H]4[C@@]5(C)CC[C@H](O)C(C)(C)[C@@H]5CC[C@]43C)[C@H]12"
class = "zone 3"

[[record]]
compound = "O=C1CC[C@H](N2Cc3c(OCc4ccc(CN5CCOCC5)cc4)cccc3C2=O)C(=O)N1"
class = "zone 1"

[[record]]
compound = "CCN(C(=O)c1ccccc1OC)c1cc2c(cc1N1CCNC[C@H]1C)n(C)c(=O)n2C"
class = "zone 3"

[[record]]
compound = "C[C@]12COC(=O)C[C@@H]1CC[C@@H]1[C@@H]2CC[C@@]2(C)[C@H]1CC[C@]2(C)O"
class = "zone 3"

[[record]]
compound = "COc1cc2c3c(n(CCCn4ccnc4)c(=O)c2cc1OC)-c1cc2c(cc1C3=O)OCO2"
class = "zone 1"

[[record]]
compound = "OB1OCc2cc(F)ccc21"
class = "zone 1"

[[record]]
compound = "C[C@H](Nc1ncnc2nc[nH]c12)c1cc2ccc(F)cc2nc1-c1ccccn1"
class = "zone 3"


* * *

Experiment Summary: Cytotoxicity counterscreen for inhibitors of SARS-CoV-2 cell entry (AID 1645845); also: nearly all actives have a fitted effect of over 50% in size
Experimental Setup: cell viability (SARS-CoV-2 entry assay cells); series mostly up to 57.1 µM
Results filed as inconclusive are left out. Activity calls are given as the source filed them. Calls come from the whole dose curve.
Possible outcomes: true (1) (active), false (0) (inactive)

[[record]]
compound = "Cc1c(O)c(=O)ccn1C"
class = "false (0)"

[[record]]
compound = "O=C(O)c1cc(O)c2c(c1)[C@H]([C@H]1c3cc(C(=O)O)cc(O)c3C(=O)c3c(O[C@@H]4O[C@H](CO)[C@@H](O)[C@H](O)[C@H]4O)cccc31)c1cccc(O[C@@H]3O[C@H](CO)[C@@H](O)[C@H](O)[C@H]3O)c1C2=O"
class = "false (0)"

[[record]]
compound = "CC(=O)c1cc2cccc(OCC(O)CNC(C)C)c2o1 (configuration not stated)"
class = "false (0)"

[[record]]
compound = "CC[C@@H](C)[C@H]1O[C@]2(CC[C@@H]1C)C[C@@H]1C[C@@H](C/C=C(\\C)[C@@H](O[C@H]3C[C@H](OC)[C@@H](O[C@H]4C[C@H](OC)[C@@H](O)[C@H](C)O4)[C@H](C)O3)[C@@H](C)/C=C/C=C3\\CO[C@@H]4[C@H](O)C(C)=C[C@@H](C(=O)O1)[C@]34O)O2"
class = "false (0)"

[[record]]
compound = "CCOC(=O)c1c[nH]c2cc(OCC(C)C)c(OCC(C)C)cc2c1=O"
class = "false (0)"

[[record]]
compound = "CC1(C)OC2=C(C(=O)c3ccccc3C2=O)[C@H](NCc2ccccc2)[C@@H]1O"
class = "true (1)"

[[record]]
compound = "Cn1cc(/C=C2\\C(=O)Nc3cccnc32)c2ccccc21"
class = "false (0)"

[[record]]
compound = "CC[C@H]1OC(=O)C[C@@H](O)[C@H](C)[C@@H](O[C@@H]2O[C@H](C)[C@@H](O[C@H]3C[C@@](C)(O)[C@@H](O)[C@H](C)O3)[C@H](N(C)C)[C@H]2O)[C@@H](CC=O)C[C@@H](C)C(=O)/C=C/C(C)=C/[C@@H]1CO[C@@H]1O[C@H](C)[C@@H](O)[C@@H](OC)[C@H]1OC"
class = "false (0)"

[[record]]
compound = "[2H]C([2H])([2H])C(CCC[C@@H](C)[C@H]1CC[C@H]2/C(=C/C=C3\\C[C@@H](O)C[C@H](O)C3=C)CCC[C@]12C)C([2H])([2H])[2H]"
class = "false (0)"

[[record]]
compound = "CCCCCCC(COC(=O)c1cccnc1)(COC(=O)c1cccnc1)COC(=O)c1cccnc1"
class = "false (0)"

[[record]]
compound = "CC(C)(C)C(=O)CN1C(=O)[C@H](NC(=O)Nc2cccc(C(=O)O)c2)CN(C2CCCCC2)c2ccccc21"
class = "false (0)"

[[record]]
compound = "O=C1S/C(=C\\c2ccc(OCc3cccc(B(O)O)c3)cc2)C(=O)N1Cc1ccc(F)cc1"
class = "false (0)"

[[record]]
compound = "Nc1nc(OC(c2ccc(-c3cccc(F)c3)cc2)C(F)(F)F)cc(-c2ccc(C[C@@H](N)C(=O)O)cc2)n1 (some centres not stated)"
class = "false (0)"

[[record]]
compound = "CC(OC(=O)OC1CCCCC1)OC(=O)C1=C(CSc2nnnn2CCN(C)C)CS[C@@H]2[C@H](NC(=O)Cc3csc(N)n3)C(=O)N12 (some centres not stated)"
class = "false (0)"

[[record]]
compound = "C[C@@H](Nc1ncnc2[nH]c(-c3ccc(O)cc3)cc12)c1ccccc1"
class = "false (0)"

[[record]]
compound = "CC[N+](CC)(CC)CCC(O)(c1ccccc1)C1CCCCC1 (configuration not stated)"
class = "false (0)"

[[record]]
compound = "NS(=O)(=O)c1ccc(-n2nc(C(F)(F)F)cc2-c2ccc(F)cc2)cc1"
class = "false (0)"

[[record]]
compound = "CN(C)Cc1ccc(S(=O)(=O)n2ccc(/C=C/C(=O)NO)c2)cc1"
class = "true (1)"

[[record]]
compound = "C=CC1(C)CC(=O)C2(O)C(C)(O1)C(OC(C)=O)C(OC(=O)CCN(C)C)C1C(C)(C)CCC(O)C12C (configuration not stated)"
class = "false (0)"

[[record]]
compound = "Nc1ccn([C@@H]2C(F)=C(CO)[C@@H](O)[C@H]2O)c(=O)n1"
class = "false (0)"

[[record]]
compound = "CCCCCCCCCC(=O)NO"
class = "false (0)"

[[record]]
compound = "CCCCCCCCCCC(=O)O[C@H]1CC[C@H]2[C@@H]3CCC4=CC(=O)CC[C@]4(C)[C@H]3CC[C@]12C"
class = "false (0)"

[[record]]
compound = "CCN1CCN(C(=O)N[C@@H](C(=O)N[C@]2(OC)C(=O)N3C(C(=O)O)=C(CSc4nnnn4C)CS[C@@H]32)[C@H](C)O)C(=O)C1=O"
class = "false (0)"

[[record]]
compound = "CC(=O)O[C@H]1CC[C@@]2(C)C(=CC[C@H]3[C@@H]4CC[C@H](C(C)=O)[C@@]4(C)CC[C@@H]32)C1"
class = "false (0)"

[[record]]
compound = "CC1(C)CCC2(CC1)N[C@@H](C(=O)N[C@@H]1CC[C@@H](C(N)=O)OC1)[C@H](c1ccnc(Cl)c1F)[C@]21C(=O)Nc2cc(Cl)ccc21"
class = "false (0)"

[[record]]
compound = "COCC1=C(C(=O)O)N2C(=O)[C@@H](NC(=O)/C(=N\\OC)c3csc(N)n3)[C@H]2SC1"
class = "false (0)"

[[record]]
compound = "CCc1cc(/C(C)=N/OCc2ccc(C3CCCCC3)c(C(F)(F)F)c2)ccc1CN1CC(C(=O)O)C1"
class = "false (0)"

